biological target: T1, his-tagged human IL-4R recombinant protein (h-IL-4R-his) (human, UniProt P24394 26-232); assay: binding ELISA, human IL-4R-his coated
T1 construct: range 26-232; Made by Acrobiosystems in HEK293; also called Human IL-4R-his; not shown: his tag
This section presents binders with their documented log10(EC50) values.
assay_readout: log10(EC50) (log10 of the value in µg/mL)

>>> numeric_value("human-murine chimeric antibody 7B10-C (antibody, V domains shown, Expressed in HEK293 cells) VH: QVQLQQPGTELLKPGASVSLSCKASGYTFTSYWMHWVKQRPGQGLEWIGLIHPNSDTTKFSENFKTRATLTIDKSSSTAYMKLSSLTSEDSAVYYCAKSKIITTIVARHWYFDVWGTGTTVTVSS VL: DIVLTQSPPSLAVSLGQRATISCKASQSVDYGGDSYMNWYQQKLGQPPKVLIYAASNLESGIPARFSGSGSGTDFTLNIHPVEEEDVATYYCQHSNENPPTFGGGTKLEIK")
-1.93
>>> numeric_value("murine monoclonal antibody 25G7 (antibody, V domains shown, also called hybridoma 25G7) VH: EVQLVESGGGLVKPGGSLKLSCAASGFTFSDYGMHWVRQAPEKGLEWVAFISSGSSIIYYADIVKGRSTISRDNAKNTLFLQMTSLRSEDTAMYYCTRGNKRGFFDYWGQGTILTVSS VL: QIVLTQSPALMSASPGEKVTMTCNASSSVSYMYWYQRKPRSSPKPWIYLTSNLASGVPVRFSGSGSGTSYSLTISSMEAEDAATYYCQQWRSNPPMLTFGSGTKLEVK")
-2.48
>>> numeric_value("murine monoclonal antibody 7B10 (antibody, V domains shown, also called hybridoma 7B10) VH: QVQLQQPGTELLKPGASVSLSCKASGYTFTSYWMHWVKQRPGQGLEWIGLIHPNSDTTKFSENFKTRATLTIDKSSSTAYMKLSSLTSEDSAVYYCAKSKIITTIVARHWYFDVWGTGTTVTVSS VL: DIVLTQSPPSLAVSLGQRATISCKASQSVDYGGDSYMNWYQQKLGQPPKVLIYAASNLESGIPARFSGSGSGTDFTLNIHPVEEEDVATYYCQHSNENPPTFGGGTKLEIK")
-1.34
>>> numeric_value("humanized antibody hu25G7 (antibody, human IgG4 S228P, kappa, V domains shown, Uses the VH-c heavy chain and the VL-a light chain; also called wild-type hu25G7) VH: EVQLVESGGGLVQPGGSLRLSCAASGFTFSDYGMHWVRQAPGKGLEWVAFISSGSSIIYYADIVKGRSTISRDNAKNSLYLQMNSLRAEDTAVYYCTRGNKRGFFDYWGQGTLVTVSS VL: EIVLTQSPATLSLSPGERATLSCNASSSVSYMYWYQQKPGQAPRLLIYLTSNLASGIPARFSGSGSGTDFTLTISSLEPEDFAVYYCQQWRSNPPMLTFGGGTKVEIKR")
-2.47
>>> numeric_value("human-murine chimeric antibody 25G7-C (antibody, V domains shown, Expressed in HEK293 cells) VH: EVQLVESGGGLVKPGGSLKLSCAASGFTFSDYGMHWVRQAPEKGLEWVAFISSGSSIIYYADIVKGRSTISRDNAKNTLFLQMTSLRSEDTAMYYCTRGNKRGFFDYWGQGTILTVSS VL: QIVLTQSPALMSASPGEKVTMTCNASSSVSYMYWYQRKPRSSPKPWIYLTSNLASGVPVRFSGSGSGTSYSLTISSMEAEDAATYYCQQWRSNPPMLTFGSGTKLEVK")
-2.04
>>> numeric_value("humanized antibody hu7B10 (antibody, human IgG1, kappa, V domains shown, Uses the VH-b heavy chain and the VL-b light chain) VH: EVQLVQSGAEVKKPGASVKVSCKASGYTFTSYWMHWVRQAPGQGLEWMGLIHPNSDTTKFSENFKTRVTMTIDTSISTAYMELSRLRSDDTAVYYCAKSKIITTIVARHWYFDVWGQGTTVTVSS VL: DIVLTQTPLSLSVTPGQPASISCKASQSVDYGGDSYMNWYLQKPGQPPQLLIYAASNLESGVPDRFSGSGSGTDFTLKISRVEAEDVGVYYCQHSNENPPTFGGGTKVEIKR")
-1.92
